Target Desc: Mitogen-activated protein kinase 14 (Homo sapiens)
Protocol Summary: Inhibition of N-terminus His-tagged human p38alpha expressed in Escherichia coli BL21 DE3 using GST-tagged ATF2 as substrate after 90 mins by HTRF assay
pIC50: −log10 of the molar value.
Measured Metric: pIC50

(P) CCOC(=O)Cc1ccc(-n2nc(C(C)(C)C)cc2NC(=O)Nc2nccs2)cc1
(Q) CC(C)(C)c1cc(NC(=O)Nc2nccs2)n(-c2ccc(CC(=O)O)cc2)n1
Among P and Q , which shows a numerically higher pIC50 result? Reply with the label of the item you choose.
Q

* * *

Target Desc: Mitogen-activated protein kinase 14 (Homo sapiens, UniProt Q16539)
Sequence (Q16539 whole entry): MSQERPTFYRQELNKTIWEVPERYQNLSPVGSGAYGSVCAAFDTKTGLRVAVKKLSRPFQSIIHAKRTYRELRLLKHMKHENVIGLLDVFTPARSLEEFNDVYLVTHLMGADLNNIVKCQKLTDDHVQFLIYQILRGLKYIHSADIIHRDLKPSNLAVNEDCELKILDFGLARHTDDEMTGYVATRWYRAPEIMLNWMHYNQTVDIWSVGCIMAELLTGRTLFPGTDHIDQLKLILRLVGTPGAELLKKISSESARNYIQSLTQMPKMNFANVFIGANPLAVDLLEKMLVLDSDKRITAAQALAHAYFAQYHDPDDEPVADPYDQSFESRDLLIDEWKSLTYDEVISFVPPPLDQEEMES
pKd: −log10 of the molar value.
Measured Metric: pKd

Here are 3 compounds together with their reported answers.
{"Sample Smiles": "O=C(O)Cc1ccc(-n2nc(C3CCCC3)cc2NC(=O)Nc2nc(CCOCc3ccccc3)cs2)cc1", "pKd": 6.05}
{"Sample Smiles": "O=C(O)Cc1cccc(-n2nc(C3CC3)cc2NC(=O)Nc2nc(CCOCc3ccccc3)cs2)c1", "pKd": 4.83}
{"Sample Smiles": "Cc1ccc(-n2nc(C(C)(C)C)cc2NC(=O)Nc2nccs2)cc1", "pKd": 6.00}

(a) Cc1ccc(-n2nc(C(C)(C)C)cc2NC(=O)Nc2nc(CCOCc3ccc(F)cc3)cs2)cc1
(b) O=C(O)Cc1cccc(-n2nc(C3CCCC3)cc2NC(=O)Nc2nc(CCOCc3ccccc3)cs2)c1
Returns: the label, a or b , whose recorded pKd is the lower number. Reply with the label of the item you choose.
b

* * *

Target Desc: Mitogen-activated protein kinase 14 (Homo sapiens, UniProt Q16539)
Measured Metric: Kd (µM)

(P) CCOC(=O)Cc1ccc(-n2nc(C(C)(C)C)cc2NC(=O)Nc2nccs2)cc1
(Q) Cc1ccc(-n2nc(C(C)(C)C)cc2NC(=O)Nc2nc(CCOCc3ccccc3)cs2)cc1
(R) CC(C)(C)c1cc(NC(=O)Nc2nccs2)n(-c2ccc(CC(=O)O)cc2)n1
Kindly sort the 3 compounds above from the smallest to the largest Kd. Your reply should list the labels following the order given in the request.
R, Q, P

* * *

Target Desc: Mitogen-activated protein kinase 14 (Homo sapiens)
Protocol Summary: Inhibition of p38alpha-mediated MK2 phosphorylation in anisomysin-stimulated human HeLa cells after 2 hrs by immunoblot analysis
Measured Metric: IC50 (µM)
Write the number in µM without appending the unit.

Return the recorded IC50 value; entry: "CCOC(=O)Cc1ccc(-n2nc(C(C)(C)C)cc2NC(=O)Nc2nccs2)cc1"
6

* * *

Target Desc: Mitogen-activated protein kinase 14 (Homo sapiens)
pKd: −log10 of the molar value.
Measured Metric: pKd

{"Compound": "Cc1ccc(-n2nc(C(C)(C)C)cc2NC(=O)Nc2nc(CCOCc3ccncc3)cs2)cc1", "Value Measured": 6.23}

(1) NC(COCc1ccccc1)c1csc(NC(=O)Nc2ccc(Cl)c(F)c2)n1 (centres undefined)
(2) CC(C)(C)c1cc(NC(=O)Nc2nc(CCOCc3ccccc3)cs2)n(-c2ccc(CC(=O)O)cc2)n1
(3) CC(C)(C)c1cc(NC(=O)Nc2nc(CCOCc3ccccc3)cs2)n(-c2cccc(CC(=O)O)c2)n1
Falling order of pKd, please. Your reply should list the labels following the order given in the request.
2, 3, 1
